- Tested on: HCC 2998
- Procedure text: NCI tumour cell line growth inhibition, 48 h
Activity calls are given as the source filed them. Cut-off read from the data, not from the text of the source: active = GI50 up to about 1.1 µM and inactive = higher.
// one of active, inactive, no free text

Cn1ncc2c(Nc3ccc(Cl)cc3)c3ccccc3nc21
inactive
O=C(/C=C/c1ccccc1)Oc1cccc2cccnc12
inactive
O=C1c2ccccc2C(=O)c2oc(Br)cc21
inactive

Asked: I would be grateful if you could indicate the recorded call for CC1=Nn2c(nnc2-c2ccc(Cl)cc2)NC(C)(C)C1 .
Given back: inactive

Asked: I would be grateful if you could indicate the recorded call for COc1cc(Oc2nc3ccc(C(F)(F)F)cc3nc2-c2ccccc2)cc(OC)c1OC .
Given back: inactive

Asked: I would be grateful if you could indicate the recorded call for CCCCCCCCC(=O)NCCCNCCCNC(=O)CCCCCCCC .
Given back: inactive

Asked: I would be grateful if you could indicate the recorded call for Cc1ccc(NC(=O)C2C(=O)N(c3ccc(C)cc3)C(=O)/C2=N\NC(N)=S)cc1 (stereo unspecified) .
Given back: inactive
